Origin of measurements: PubChem BioAssay

# Procedure Summary: H69AR cell proliferation blockers – human, duplicate replicates, primary screen (AID 580);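 note: 100% = mean luminescence of untreated wells and 0% = no signal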
# Condition Description: H69AR lung tumor cells viability, ATP luminescence, 72 h; at 10 µM; active compounds read low
Catalogue of viability readings, one per entry.
API: value field is a number in %; no unit string.

Field: example entries. Status: answers known.
>>> observed("O=C1CCCC2=C1C(c1cccc(Br)c1)n1nc(-c3ccco3)nc1N2 (stereo unspecified)")
103
>>> observed("Cn1ccnc1C(O)c1ccco1 (stereo unspecified)")
103
>>> observed("Cc1c(Cl)cccc1NC(=O)CCN1CCCCC1")
101
>>> observed("Cc1nc2sc(C(c3cccs3)N3CC(C)CC(C)C3)c(O)n2n1 (stereo unspecified)")
95.2
>>> observed("CCCc1nnc(NC(=O)NCCN2C(=O)C3C4C=CC(C4)C3C2=O)s1 (stereo unspecified)")
97.8

Please fill in: viability reported for O=C(Nc1ccc(Cl)cn1)c1cccnc1 = 70.1

Please fill in: viability reported for c1ccc2c(c1)ccc1nnc(-c3ccc4c(c3)OCO4)n12 = 96

Please fill in: viability reported for O=C(Nc1ccc2c(c1)OCO2)c1ccc(CN2CCOCC2)cc1 = 97.3

Please fill in: viability reported for CCn1c(C(C#N)/C(=N\S(=O)(=O)c2cccs2)c2ccccc2)nc2ccccc21 (stereo unspecified) = 81.7

Please fill in: viability reported for CC1CCCCN1CCNC(=O)C1CCN(S(=O)(=O)c2cccc3cccnc23)CC1 (stereo unspecified) = 100

Please fill in: viability reported for N#CCCN(Cc1cccnc1)C(=O)Nc1ccc(Cl)c(Cl)c1 = 91.2
